For each of the compounds below, state its log10 IC50.
Tested on: MX-1 (breast carcinoma)
Assay: Cytotoxicity/growth inhibition assay, MX-1
Assay type: cell-based, human
Details: MX-1 cells, 3 days culture, CellTiter-Glo, 0.1-200 μM tested; read-out: IC50 (MX-1)
Use the decimal logarithm of IC50 (µM).

# annotated cases, reported log10 IC50 shown
compound | measurement-target | log10 IC50
O=C(O)[C@H](CS(=O)(=O)CCOP(=O)(N(CCCl)CCCl)N(CCCl)CCCl)NS(=O)(=O)c1ccc(Cl)cc1 [Compound 105A] | MX-1 (breast carcinoma) | 1.50
O=P(OCCS(=O)(=O)c1ccc(Cl)c(Cl)c1)(N(CCCl)CCCl)N(CCCl)CCCl [Compound 112A] | MX-1 (breast carcinoma) | 0.00
O=P(OCCS(=O)(=O)c1ccc(-c2ccccc2)cc1)(N(CCCl)CCCl)N(CCCl)CCCl [Compound 113A] | MX-1 (breast carcinoma) | 1.04

For each listed entry, give its log10 IC50.
1. O=P(OCCS(=O)(=O)c1ccccc1)(N(CCCl)CCCl)N(CCCl)CCCl [Compound 117A]
2. CS(=O)(=O)N[C@@H](CS(=O)(=O)CCOP(=O)(N(CCCl)CCCl)N(CCCl)CCCl)C(=O)O [Compound 104A]
3. CC(C)(C)c1ccc(S(=O)(=O)CCOP(=O)(N(CCCl)CCCl)N(CCCl)CCCl)cc1 [Compound 114A]
4. N[C@@H](CS(=O)(=O)CCOP(=O)(N(CCCl)CCCl)N(CCCl)CCCl)C(=O)N1CCN(C(=O)c2ccco2)CC1 [Compound 90A]
5. O=C(CCS(=O)(=O)CCOP(=O)(N(CCCl)CCCl)N(CCCl)CCCl)NCCO [Compound 56A]
6. O=P(OCCS(=O)(=O)Cc1ccccc1Cl)(N(CCCl)CCCl)N(CCCl)CCCl [Compound 136A]
7. O=C(CCS(=O)(=O)CCOP(=O)(N(CCCl)CCCl)N(CCCl)CCCl)N1CCC(O)CC1 [Compound 59A]
8. O=P(OCCS(=O)(=O)Cc1ccc(Cl)c(Cl)c1)(N(CCCl)CCCl)N(CCCl)CCCl [Compound 134A]

Ans:
1. 0.61
2. 1.40
3. 0.67
4. 1.38
5. 1.29
6. 0.45
7. 1.40
8. 0.18

* * *

Test system: MX-1 (breast carcinoma)
Test: Cytotoxicity/growth inhibition assay, MX-1
Type: cell-based, human
Details: MX-1 cells, 3 days culture, CellTiter-Glo, 0.1-200 μM tested; read-out: IC50 (MX-1)
Cut-off 10 µM on IC50: below means Y, at or above means N.

Example cases with answers are listed next.
molecule | assigned-category
C=CS(=O)(=O)CCOP(=O)(N(CCCl)CCCl)N(CCCl)CCCl [Compound 2A] | Y
NC(=O)c1ccc(CS(=O)(=O)CCOP(=O)(N(CCCl)CCCl)N(CCCl)CCCl)cc1 [Compound 162A] | Y
CN1CCN(C(=O)CS(=O)(=O)CCOP(=O)(N(CCCl)CCCl)N(CCCl)CCCl)CC1 [Compound 22A] | N
CC(C)NC(=O)[C@H](CS(=O)(=O)CCOP(=O)(N(CCCl)CCCl)N(CCCl)CCCl)NS(C)(=O)=O [Compound 97A] | N
CC(C)NC(=O)[C@H](CS(=O)(=O)CCOP(=O)(N(CCCl)CCCl)N(CCCl)CCCl)NS(=O)(=O)c1ccccc1 [Compound 92A] | N

Q: Does the reported IC50 of O=P(OCCS(=O)(=O)c1nc2ccccc2s1)(N(CCCl)CCCl)N(CCCl)CCCl [Compound 121A] stay below 10 µM?
Ans: Y

Q: Does the reported IC50 of CC(C)(C(N)C(=O)O)S(=O)(=O)CCOP(=O)(N(CCCl)CCCl)N(CCCl)CCCl (stereo not drawn) [Compound 75A] stay below 10 µM?
Ans: N

Q: Does the reported IC50 of O=C(CCS(=O)(=O)CCOP(=O)(N(CCCl)CCCl)N(CCCl)CCCl)N1CCOCC1 [Compound 58A] stay below 10 µM?
Ans: N

Q: Does the reported IC50 of O=C(O)c1ccc(CS(=O)(=O)CCOP(=O)(N(CCCl)CCCl)N(CCCl)CCCl)cc1 [Compound 139A] stay below 10 µM?
Ans: N

Q: Does the reported IC50 of O=C(O)c1ccccc1S(=O)(=O)CCOP(=O)(N(CCCl)CCCl)N(CCCl)CCCl [Compound 118A] stay below 10 µM?
Ans: N

Q: Does the reported IC50 of CC(C)(C)OC(=O)[C@@H]1CCCN1C(=O)CS(=O)(=O)CCOP(=O)(N(CCCl)CCCl)N(CCCl)CCCl [Compound 42A] stay below 10 µM?
Ans: Y

Q: Does the reported IC50 of CC(C)(C)OC(=O)NCC(=O)Nc1cccc(CS(=O)(=O)CCOP(=O)(N(CCCl)CCCl)N(CCCl)CCCl)c1 [Compound 144A] stay below 10 µM?
Ans: Y

Q: Does the reported IC50 of O=P(OCCS(=O)(=O)c1cccc(S(=O)(=O)CCOP(=O)(N(CCCl)CCCl)N(CCCl)CCCl)c1)(N(CCCl)CCCl)N(CCCl)CCCl [Compound 11B] stay below 10 µM?
Ans: Y

Q: Does the reported IC50 of CCN(CC)C(=O)c1ccc(CS(=O)(=O)CCOP(=O)(N(CCCl)CCCl)N(CCCl)CCCl)cc1 [Compound 157A] stay below 10 µM?
Ans: Y

Q: Does the reported IC50 of CCCCS(=O)(=O)CCOP(=O)(N(CCCl)CCCl)N(CCCl)CCCl [Compound 5A] stay below 10 µM?
Ans: N

* * *

Test system: MX-1 (breast carcinoma)
Assay: Cytotoxicity/growth inhibition assay, MX-1
Type: cell-based, human
Conditions: MX-1 cells, 3 days culture, CellTiter-Glo, 0.1-200 μM tested; read-out: IC50 (MX-1)
readout-label: log10 IC50 (log10 of the value in µM)
Use the decimal logarithm of IC50 (µM).

# annotated cases, reported log10 IC50 shown
compound | result-number
O=P(OCCS(=O)(=O)CCOCCS(=O)(=O)CCOP(=O)(N(CCCl)CCCl)N(CCCl)CCCl)(N(CCCl)CCCl)N(CCCl)CCCl [Compound 8B] | 1.04
O=P(OCCS(=O)(=O)c1ccccn1)(N(CCCl)CCCl)N(CCCl)CCCl [Compound 124A] | 0.86
CC(C)(C)OC(=O)CN1CCN(C(=O)CS(=O)(=O)CCOP(=O)(N(CCCl)CCCl)N(CCCl)CCCl)CC1 [Compound 47A] | 1.20

For each listed entry, give its log10 IC50.
1. Cc1cccc(S(=O)(=O)CCOP(=O)(N(CCCl)CCCl)N(CCCl)CCCl)c1 [Compound 110A]
2. O=C(c1ccc(CS(=O)(=O)CCOP(=O)(N(CCCl)CCCl)N(CCCl)CCCl)cc1)N1CCC(O)CC1 [Compound 166A]
3. CC(C)(C)OC(=O)N[C@@H](CS(=O)(=O)CCOP(=O)(N(CCCl)CCCl)N(CCCl)CCCl)C(=O)N1CCN(C(=O)c2ccco2)CC1 [Compound 85A]
4. O=P(OCCS(=O)(=O)Cc1ccc(Cl)cc1Cl)(N(CCCl)CCCl)N(CCCl)CCCl [Compound 135A]

Ans:
1: 0.43; 2: 1.31; 3: 1.07; 4: 0.54

* * *

System: MX-1 (breast carcinoma)
Assay: Cytotoxicity/growth inhibition assay, MX-1
Format: cell-based, human
Conditions: MX-1 cells, 3 days culture, CellTiter-Glo, 0.1-200 μM tested; read-out: IC50 (MX-1)
Experimental: […] Log-phase cells were trypsinized, collected by centrifugation, and resuspended in a small volume of fresh medium, and the density of viable cells was determined following Trypan Blue staining. […] After incubation for 15 minutes at room temperature, and the plate was read with a luminometer.
For each of the molecules below, state its IC50.

# annotated cases, reported IC50 shown
molecule | measurement-target | result
O=C(CS(=O)(=O)CCOP(=O)(N(CCCl)CCCl)N(CCCl)CCCl)N1CCOCC1 [Compound 51A] | MX-1 (breast carcinoma) | 6.9 µM
Cc1ncc(CS(=O)(=O)CCOP(=O)(N(CCCl)CCCl)N(CCCl)CCCl)c(CO)c1O [Compound 183A] | MX-1 (breast carcinoma) | 18.4 µM

Turning to the following molecule.
Q: Fill in: IC50 of O=C(c1ccc(CS(=O)(=O)CCOP(=O)(N(CCCl)CCCl)N(CCCl)CCCl)cc1)N1CCN(c2ccccn2)CC1 [Compound 176A] is ___
Ans: 6.4 µM

* * *

Tested on: MX-1 (breast carcinoma)
Assay: Cytotoxicity/growth inhibition assay, MX-1
Format: cell-based, human
Conditions: MX-1 cells, 3 days culture, CellTiter-Glo, 0.1-200 μM tested; read-out: IC50 (MX-1)
readout-label: pIC50
Give bare numbers, as −log10 of the molar value.

compound | pIC50
CCCS(=O)(=O)CCOP(=O)(N(CCCl)CCCl)N(CCCl)CCCl | 4.94
CC(C)(C)OC(=O)N[C@@H](CS(=O)(=O)CCOP(=O)(N(CCCl)CCCl)N(CCCl)CCCl)C(=O)N1CCOCC1 [Compound 83A] | 4.89
CC(=O)N[C@@H](CS(=O)(=O)CCOP(=O)(N(CCCl)CCCl)N(CCCl)CCCl)C(=O)O [Compound 73A] | 4.53
O=C(CS(=O)(=O)CCOP(=O)(N(CCCl)CCCl)N(CCCl)CCCl)NCCN1CCOCC1 [Compound 23A] | 4.59
O=C(CS(=O)(=O)CCOP(=O)(N(CCCl)CCCl)N(CCCl)CCCl)NCCO [Compound 49A] | 4.54

For each listed entry, give its pIC50.
1. N[C@@H](CCCNC(=O)CS(=O)(=O)CCOP(=O)(N(CCCl)CCCl)N(CCCl)CCCl)C(=O)O [Compound 32A]
2. CC(C)(C)c1ccc(CS(=O)(=O)CCOP(=O)(N(CCCl)CCCl)N(CCCl)CCCl)cc1 [Compound 137A]
3. CN(CCO)C(=O)c1ccc(CS(=O)(=O)CCOP(=O)(N(CCCl)CCCl)N(CCCl)CCCl)cc1 [Compound 158A]
4. CS(=O)(=O)CCC(NC(=O)CS(=O)(=O)CCOP(=O)(N(CCCl)CCCl)N(CCCl)CCCl)C(=O)O (centres unmarked) [Compound 66A]
5. O=P(OCCS(=O)(=O)c1ccccc1Cl)(N(CCCl)CCCl)N(CCCl)CCCl [Compound 106A]

Ans:
4.39
5.77
4.45
4.54
5.38

For each listed entry, give its pIC50.
1. O=P(OCCS(=O)(=O)Cc1cccc[n+]1[O-])(N(CCCl)CCCl)N(CCCl)CCCl [Compound 182A]
2. O=P(OCCS(=O)(=O)c1ccc(S(=O)(=O)CCOP(=O)(N(CCCl)CCCl)N(CCCl)CCCl)cc1)(N(CCCl)CCCl)N(CCCl)CCCl [Compound 12B]
3. O=P(OCCS(=O)(=O)CCOCCOCCS(=O)(=O)CCOP(=O)(N(CCCl)CCCl)N(CCCl)CCCl)(N(CCCl)CCCl)N(CCCl)CCCl
4. O=C(NCc1cccnc1)c1ccc(CS(=O)(=O)CCOP(=O)(N(CCCl)CCCl)N(CCCl)CCCl)cc1 [Compound 174A]
5. N#Cc1ccc(S(=O)(=O)N[C@@H](CS(=O)(=O)CCOP(=O)(N(CCCl)CCCl)N(CCCl)CCCl)C(=O)N2CCN(C(=O)c3ccco3)CC2)cc1 [Compound 102A]
6. CC(NC(=O)CS(=O)(=O)CCOP(=O)(N(CCCl)CCCl)N(CCCl)CCCl)C(=O)O (centres unmarked) [Compound 64A]
7. CCNC(=O)CS(=O)(=O)CCOP(=O)(N(CCCl)CCCl)N(CCCl)CCCl [Compound 50A]

Ans:
1: 5.10; 2: 5.37; 3: 5.22; 4: 4.73; 5: 4.70; 6: 4.43; 7: 4.77
